What half-life was measured for each of the following?
assay_overview: Half life in human liver microsomes
Format: ADME
One number for each entry, in min.

CC[C@@H]1/C=C(\C)C[C@H](C)C[C@H](OC)[C@H]2O[C@@](O)(C(=O)C(=O)N3CCCC[C@H]3C(=O)O[C@H](/C(C)=C/[C@H]3CCCC(O)CC3)[C@H](C)[C@@H](O)CC1=O)[C@H](C)C[C@@H]2OC (stereo partly drawn) : 3.1
C=CC[C@@H]1/C=C(\C)C[C@H](C)C[C@H](OC)[C@H]2O[C@@](O)(C(=O)C(=O)N3CCCC[C@H]3C(=O)O[C@H](/C(C)=C/[C@@H]3CC[C@@H](O)[C@H](OC)C3)[C@H](C)[C@@H](O)CC1=O)[C@H](C)C[C@@H]2OC [TACROLIMUS ANHYDROUS] : 2.4

Exam item: Consider the compound `C=CC[C@@H]1/C=C(\C)C[C@H](C)C[C@H](OC)[C@H]2O[C@@](O)(C(=O)C(=O)N3CCCC[C@H]3C(=O)O[C@H](/C(C)=C/[C@H]3CC[C@H](O)CC3)[C@H](C)[C@@H](O)CC1=O)[C@H](C)C[C@@H]2OC` . State its measured half-life.
Marked response: 2.6

###

assay_overview: Solubility of the compound in phosphate buffered saline
Assay type: physicochemical
stated_conditions: phosphate buffered saline; read-out: solubility
Label rule, in plain words: solubility of 1 µM and up is TRUE, under 1 µM is FALSE.

Please review the entries below; each comes with its answer.
C=CC[C@@H]1/C=C(\C)C[C@H](C)C[C@H](OC)[C@H]2O[C@@](O)(C(=O)C(=O)N3CCCC[C@H]3C(=O)O[C@H](/C(C)=C/[C@H]3CC=CCC3)[C@H](C)[C@@H](O)CC1=O)[C@H](C)C[C@@H]2OC : FALSE
C=CC[C@@H]1/C=C(\C)C[C@H](C)C[C@H](OC)[C@H]2O[C@@](O)(C(=O)C(=O)N3CCCC[C@H]3C(=O)O[C@H](/C(C)=C/[C@H]3CC[C@H](O)CC3)[C@H](C)[C@@H](O)CC1=O)[C@H](C)C[C@@H]2OC : TRUE
CC[C@@H]1/C=C(\C)C[C@H](C)C[C@H](OC)[C@H]2O[C@@](O)(C(=O)C(=O)N3CCCC[C@H]3C(=O)O[C@H](/C(C)=C/[C@@H]3CC[C@@H](O)[C@@H](F)C3)[C@H](C)[C@@H](O)CC1=O)[C@H](C)C[C@@H]2OC : TRUE
C=CC[C@@H]1/C=C(\C)C[C@H](C)C[C@H](OC)[C@H]2O[C@@](O)(C(=O)C(=O)N3CCCC[C@H]3C(=O)O[C@H](/C(C)=C/[C@@H]3CC[C@@H](O)[C@H](OC)C3)[C@H](C)[C@@H](O)CC1=O)[C@H](C)C[C@@H]2OC [TACROLIMUS ANHYDROUS] : TRUE
CC[C@@H]1/C=C(\C)C[C@H](C)C[C@H](OC)[C@H]2O[C@@](O)(C(=O)C(=O)N3CCCC[C@H]3C(=O)O[C@H](/C(C)=C/[C@H]3CCCC(O)CC3)[C@H](C)[C@@H](O)CC1=O)[C@H](C)C[C@@H]2OC (stereo partly specified) : TRUE

Moving on to the next molecule.
Exam item: // inclusive: solubility at least 1 µM? input: `CC[C@@H]1/C=C(\C)C[C@H](C)C[C@H](OC)[C@H]2O[C@@](O)(C(=O)C(=O)N3CCCC[C@H]3C(=O)O[C@H](/C(C)=C/C3CCOCC3)[C@H](C)[C@@H](O)CC1=O)[C@H](C)C[C@@H]2OC`
Marked response: TRUE
